System: T-47D breast
methodNotes: NCI tumour cell line growth inhibition, 48 h
quantityKind: GI50

Below, each entry is followed by its recorded GI50 result.
> print(dat)
                                   molecule    testtarget  quantitykind  experimentalresult
1  CC1=C(C(=O)Nc2ccc(F)c(Cl)c2)C(c2cccc(Cl)c2)NC(=O)N1 (stereo not given)  T-47D breast          GI50             15.4 µM
2  O=C(NC(=S)NS(=O)(=O)c1ccc(N2N=C3c4ccccc4CC3C2c2cccs2)cc1)c1ccccc1 (stereo not given)  T-47D breast          GI50             69.6 µM
3  Cc1ccc(Cl)cc1Nc1nc(C(F)(F)F)ccc1C(=O)Oc1ccc(Cl)cc1  T-47D breast          GI50             6.53 µM
4  Fc1ccc(Nc2nc(Nc3ccc(-c4nc5ccccc5[nH]4)cc3)nc(N3CCCC3)n2)cc1  T-47D breast          GI50             2.28 µM
5  COc1cccc2c1C(=O)c1c(O)c3c(c(O)c1C2=O)C[C@@](O)(C(C)=O)C[C@@H]3OC1CC(N)C(O)C(C)O1 (stereo not given in full)  T-47D breast          GI50         < 0.0176 µM
6  CN1CCN(c2ccc3nc(-c4ccc(OCCCN5C(=O)c6cccc7cccc(c67)C5=O)cc4)[nH]c3c2)CC1  T-47D breast          GI50              4.8 µM
7  C[n+]1c2ccccc2c(NC2CCNCC2)c2[nH]c3ccccc3c21  T-47D breast          GI50            0.217 µM
8  COc1ccccc1Nc1nc(-c2cc3cccc(C(F)(F)F)c3oc2=O)cs1  T-47D breast          GI50           0.0535 µM

# per-item lookup of GI50; items listed below
1. Cc1c2c(nn1-c1ccc(S/N=C3\SCC(=O)CN3c3ccccc3)cc1)-c1ccccc1CC2
2. C=C1C(=O)O[C@H]2[C@H]1CC/C(COC(=O)CCC(=O)OC/C1=C/CC[C@@]3(C)O[C@H]3[C@H]3OC(=O)C(=C)[C@@H]3CC1)=C\CC[C@@]1(C)O[C@@H]21
3. Oc1ccc2ccccc2c1/C=N\Nc1ccccn1
4. O=C1c2cccc3cccc(c23)C(=O)N1CCCCOc1ccc(-c2nc3ccc(N4CCOCC4)cc3[nH]2)cc1
5. Nc1nc(Cl)nc2c1ncn2C1O[C@H](CO)[C@@H](O)[C@@H]1F (stereo not given in full)
6. Cn1c(=O)c(F)c(Nc2ccc(I)cc2F)c2c(=O)n(C[C@@H](O)CO)cnc21
7. O=C1NC(=NCc2ccccn2)S/C1=C\c1ccc2ncccc2c1

Out:
1: 24.7 µM; 2: 1.06 µM; 3: 0.97 µM; 4: 3.08 µM; 5: 6.94 µM; 6: 18.2 µM; 7: 11.2 µM
